- System: OVCAR-4
- assay-comment: NCI tumour cell line growth inhibition, 48 h
The source made the active and inactive calls. Cut-off read from the data, not from the text of the source: active = GI50 up to about 1.1 µM and inactive = higher. Square brackets hold non-standard residues; d marks the D form. Peptide text beside a SMILES is read from it. ξ: configuration not given here. ξ2Thi = NC(Cc1cccs1)C(=O)O; ξR = N=C(N)NCCCC(N)C(=O)O; ξI = CCC(C)C(N)C(=O)O; ξL = CC(C)CC(N)C(=O)O; ξK = NCCCCC(N)C(=O)O; ξT = CC(O)C(N)C(=O)O; ξA = CC(N)C(=O)O
// allowed return values: active, inactive

- molecule: "COC1=C(C)C(=O)c2c(cc3c(c2O)C(C)(CCC=C(C)C)C(C)O3)C1=O (stereo not given)"
  classification: "inactive"
- molecule: "Cc1ccc(NC(=O)CCc2nc(N)nc(N)c2-c2ccccc2)cc1C"
  classification: "inactive"
- molecule: "COC(=O)CCC1=CCC2(SC)C(=O)Nc3cccc1c32 (stereo not given)"
  classification: "inactive"
- molecule: "OCC1OC(n2cnc3cccnc32)CC1O (stereo not given)"
  classification: "inactive"
- molecule: "C=C(C)C(CC=C(C)C)Cc1c(O)cc(OC)c2c1OC(c1ccc(O)cc1O)C(O)C2=O (stereo not given)"
  classification: "inactive"
- molecule: "NS(=O)(=O)c1ccc(NC(=O)c2cccn3c(=O)c4ccccc4nc23)cc1"
  classification: "inactive"
- molecule: "CCC(C)C(NC(=O)C(Cc1cccs1)NC(=O)C(CC(C)C)NC(=O)C(CC(C)C)NC(=O)C(CCCCN)NC(=O)C(CCCN=C(N)N)NC(=O)[C@H](Cc1ccc(O)cc1)NC(=O)C(NC(=O)C(C)NC(=O)C(N)CC(C)C)C(C)O)C(=O)NC(CC(C)C)C(N)=O (stereo not given in full) (H-[ξL][ξA][ξT]Y[ξR][ξK][ξL][ξL][ξ2Thi][ξI][ξL]-NH2)"
  classification: "inactive"
- molecule: "O=S(=O)(/N=C(\\NO)Nc1ccc(Cl)cc1)C1CC=C(c2ccon2)S1 (stereo not given)"
  classification: "inactive"

Query :: Answer briefly: the call reported for CC[C@@]1(O)C(=O)OCc2c1cc1n(c2=O)Cc2cc3c(N)cccc3nc2-1 in this assay.
Result :: active

Query :: Please state the recorded outcome for this molecule: O=C1/C(=C/c2ccc(Cl)cc2)N=C(c2ccccc2)N1c1nc2c(Cl)cc(Cl)cc2s1
Result :: inactive

----------
- System: MDA-MB-231
- assay-comment: NCI tumour cell line growth inhibition, 48 h
Active and inactive are the calls of the source. No stated cut-off is given here; in the data, active = GI50 up to about 1.1 µM and inactive = higher. Residues, ends and D or L forms follow the SMILES beside them. *: point of attachment. Ethyl(2-NMe3+) = C[N+](C)(C)CC*; Boc = CC(C)(C)OC(=O)*
measurement-kind: GI50

- molecule: "Cc1ccc2c(/C=C/c3ccc(N(C)C)cc3)ccc(C(C)C)cc1-2"
  result: "> 100 µM (inactive)"
- molecule: "Cc1c(C#N)c2nnn(-c3cccc(Cl)c3)c(=O)n2c1-c1ccccc1"
  result: "1.57 µM (inactive)"
- molecule: "NNC(N)Nc1ccccc1 (configuration not stated)"
  result: "> 100 µM (inactive)"
- molecule: "CC(Cl)(CCC(Cl)C(C)(C)Cl)C(=O)CBr (configuration not stated)"
  result: "11.1 µM (inactive)"
- molecule: "CC(C)Cn1cnc2c(Cl)nc3ccccc3c21"
  result: "41.5 µM (inactive)"
- molecule: "O=C(c1ccccc1)C(C(=O)c1ccccc1)c1nc2ccccc2sc1=O"
  result: "11.6 µM (inactive)"
- molecule: "O=C1OC(=O)C(=C\\c2ccc3c(c2)OCO3)/C1=C/c1ccc2c(c1)OCO2"
  result: "> 100 µM (inactive)"
- molecule: "O=C(c1ccccc1)c1ccc2[nH]c(-c3c(Cl)c(Cl)c(Cl)c(Cl)c3C(=O)N/N=C/c3ccccc3)nc2c1"
  result: "19.2 µM (inactive)"

// GI50 value for C[C@H](C1CC(C)(O)C(C)(O)C(O)O1)[C@H]1CC[C@H]2[C@@H]3[C@@H]4O[C@@H]4[C@@]4(O)CC=CC(=O)[C@]4(C)[C@H]3CC[C@]12C (some centres not stated) : 44 µM (inactive)

# molecule c1ccc(-c2c[nH]c(SC(c3ccccc3)c3ccccc3)n2)cc1 ; its GI50 = 58.6 µM (inactive)

Form: molecule = CC(NC(=O)C(Cc1ccc(OCC[N+](C)(C)C)cc1)NC(=O)OC(C)(C)C)C(=O)NC(Cc1ccccc1)C(=O)NCC(N)=O (configuration not stated) (Boc-Y(Ethyl(2-NMe3+))AFG-NH2; configuration not given here) ; GI50 = 2.75 µM (inactive)

The molecule listed as O/N=C\c1c2c(cc3c1CCC3)CCC2 shows GI50 equal to > 100 µM (inactive)

Entry CC(C)(Cc1ccccc1)Cc1cc(O)ccc1O , GI50 reported as 20 µM (inactive)
